# system-tested: Somatostatin Receptor (SSTR) Subtype SSTR 2B (Homo sapiens, UniProt P30874)
# Construct: expressed in transfected cells; host or cells: CHO cells
# Sequence (P30874 1-356 isoform P30874-2): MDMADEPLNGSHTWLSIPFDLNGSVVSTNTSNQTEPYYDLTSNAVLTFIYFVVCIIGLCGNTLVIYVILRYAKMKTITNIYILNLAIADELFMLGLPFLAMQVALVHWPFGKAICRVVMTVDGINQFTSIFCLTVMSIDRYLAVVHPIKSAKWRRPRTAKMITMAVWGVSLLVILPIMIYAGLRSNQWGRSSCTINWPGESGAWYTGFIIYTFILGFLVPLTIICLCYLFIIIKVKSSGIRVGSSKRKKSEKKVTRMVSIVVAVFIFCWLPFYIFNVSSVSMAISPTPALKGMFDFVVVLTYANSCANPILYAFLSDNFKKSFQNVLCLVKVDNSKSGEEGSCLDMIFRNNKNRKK
# procedure-summary: Inhibition of radioactive iodinated somatostatin (SRIF-14) binding, CHO cells expressing SSTR 2B
# test-context: Conc. 10^-7 M, read-out: percent inhibition of radioactive iodinated somatostatin (SRIF-14) binding, SSTR 2B
Numbered stars: 1 amine (or outer) side, 2 acyl side, 3 side chain; on linkers, the order of the positions; unused ones are H or OH. Bridge positions count the residues as written; N and C are the ends. Square brackets hold non-standard residues; d marks the D form. Peptide text beside a SMILES is read from it. NGly(3-aminopropyl) = O=C(CN(CCCN[*:3])[*:1])[*:2]; N(CH2CH2CO)Gly = O=C(CN(CCC(=O)[*:3])[*:1])[*:2]
For each record, write down the corresponding inhibition at 0.1 µM.
Give bare numbers, in %.

molecule | readout-units | inhibition at 0.1 µM
C[C@@H](O)[C@H](NC(=O)CN1CCC(=O)NCCCN(C(=O)[C@H](N)Cc2ccccc2)CC(=O)N[C@@H](Cc2ccccc2)C(=O)N[C@H](Cc2c[nH]c3ccccc23)C(=O)N[C@@H](CCCCN)C(=O)N[C@@H]([C@@H](C)O)C1=O)C(N)=O [PTR 3010] (H-[dF][NGly(3-aminopropyl)]F[dW]KT[N(CH2CH2CO)Gly]T-NH2; lactam 2-7) | % | 0
C[C@@H](O)[C@H](NC(=O)CN1CCCNC(=O)CCN(C(=O)[C@H](N)Cc2ccccc2)CC(=O)N[C@@H](Cc2ccccc2)C(=O)N[C@H](Cc2c[nH]c3ccccc23)C(=O)N[C@@H](CCCCN)C(=O)N[C@@H]([C@@H](C)O)C1=O)C(N)=O [PTR 3007] (H-[dF][N(CH2CH2CO)Gly]F[dW]KT[NGly(3-aminopropyl)]T-NH2; lactam 2-7) | % | 0

Read the next record carefully.
The molecule C[C@@H](O)[C@H](NC(=O)CNC(=O)[C@@H](NC(=O)[C@H](CCCCN)NC(=O)[C@@H](Cc1c[nH]c2ccccc12)NC(=O)[C@H](Cc1ccccc1)NC(=O)CNC(=O)[C@H](N)Cc1ccccc1)[C@@H](C)O)C(N)=O [PTR 3003] (H-[dF]GF[dW]KTGT-NH2) showed inhibition at 0.1 µM equal to 3
